test system: SW1271 complex spheroids with HUVEC/MSC, growth, % test/control; test: Anticancer human tumor SW1271 cell line growth inhibition [AhR]; conditions: second compound 0.316 µM; first compound 0.00949 µM; active compounds read low;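 further: spheroids exposed to agents for 7 days before readout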
Measured viability, T/C values are reported for all entries that follow.
Numbers only; they are read as %.

1) CC(C)CC(NC(=O)C(Cc1ccccc1)NC(=O)c1cnccn1)B(O)O (stereo not drawn) + Cc1ccccc1N=Nc1ccc(NC(=O)c2ccnn2C)c(C)c1; 11.3

The reported viability, T/C of the molecule Nc1ncn(C2CC(O)C(CO)S2)c(=O)n1 (stereo not drawn) + Cc1cncc(-c2nc(NCCc3c[nH]c4ccccc34)c3ncn(C(C)C)c3n2)c1 was 81.8

The reported viability, T/C of the molecule O=C(C=Cn1cnc(-c2cc(C(F)(F)F)cc(C(F)(F)F)c2)n1)NNc1cnccn1 + CC(CO)NC(=O)c1cc(-c2ccc(Cl)cc2)nn(-c2cnn(C)c2)c1=O was 74.4
